Collected IC50, inhibition of C3b deposition values appear next to each entry.
Target: MASP-2 in human serum (human, UniProt O00187 16-686)
Sequence (O00187 16-686 limits assumed): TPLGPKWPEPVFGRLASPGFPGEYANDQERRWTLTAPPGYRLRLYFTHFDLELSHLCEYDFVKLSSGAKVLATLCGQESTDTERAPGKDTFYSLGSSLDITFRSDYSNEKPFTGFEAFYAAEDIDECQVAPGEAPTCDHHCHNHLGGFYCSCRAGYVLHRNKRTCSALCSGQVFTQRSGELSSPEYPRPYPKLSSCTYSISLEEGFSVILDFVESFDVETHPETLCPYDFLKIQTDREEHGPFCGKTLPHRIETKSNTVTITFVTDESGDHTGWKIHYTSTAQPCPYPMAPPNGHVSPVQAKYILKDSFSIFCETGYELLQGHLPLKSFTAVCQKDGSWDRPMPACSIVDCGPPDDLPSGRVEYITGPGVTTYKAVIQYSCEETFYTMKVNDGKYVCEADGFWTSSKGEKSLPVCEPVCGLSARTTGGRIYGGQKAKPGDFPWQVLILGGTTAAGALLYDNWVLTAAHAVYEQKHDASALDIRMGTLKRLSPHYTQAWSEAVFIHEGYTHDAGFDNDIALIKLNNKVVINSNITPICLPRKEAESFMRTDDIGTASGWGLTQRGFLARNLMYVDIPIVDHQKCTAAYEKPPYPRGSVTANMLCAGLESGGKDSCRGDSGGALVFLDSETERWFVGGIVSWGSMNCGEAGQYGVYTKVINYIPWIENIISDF
Assay: cell-based or functional assay
Write your answer as a measured quantity: the number, then the unit.

IC50, inhibition of C3b deposition for h3H6 H2K1 (antibody, V domains shown) VH: QVQLVQSGAEVKKPGSSVKVSCKASGYTFATYSIHWVRQAPGQGLEWMGYINPSSGYTNYNQKFQGRVTLTADESTSTAYMELSSLRSEDTAVYYCARVYYTFYHAMDYWGQGTTVTVSS VL: DIQMTQSPSSLSASVGDRVTITCRASQDVNTAVAWYQQKPGKAPKLLIYSASYRYTGVPSRFSGSGSGTDFTLTISSLQPEDFATYYCQQHYNIPLTFGGGTKVEIK is 151 pM

IC50, inhibition of C3b deposition for h28O14 H3K1 (antibody, V domains shown) VH: QVQLVQSGAEVKKPGSSVKVSCKASGYTFRSHTMHWVRQAPGQGLEWMGYINPSTGYINYNQKFQGRVTITADKSTSTAYMELSSLRSEDTAVYYCARSNYAYYYGMDYWGQGTTVTVSS VL: DIQMTQSPSSLSASVGDRVTITCRASQDVNTAVAWYQQKPGKAPKLLIYSASYRYTGVPSRFSGSGSGTDFTLTISSLQPEDFATYYCQQHYNIPLTFGGGTKVEIK is 161 pM

IC50, inhibition of C3b deposition for h16B11 H2K2 (antibody, V domains shown) VH: QLQLQESGPGLVKPSETLSLTCTVSGYSITSDYAWNWIRQPPGKGLEWIGYISYSGRTSYNPSLKSRVTISRDTSKNQFSLKLSSVTAADTAVYYCARHYGDYWGQGTLVTVSS VL: DIQMTQSPSSLSASVGDRVTITCRASQNVGTNVAWYQQKPGKAPKLLIYSASYRESGVPSRFSGSGSGTDFTLTISSLQPEDFATYFCQQFNTNPLTFGGGTKVEIK is 28 pM
